B1: Azoarcus group I ribozyme (parent)
chain: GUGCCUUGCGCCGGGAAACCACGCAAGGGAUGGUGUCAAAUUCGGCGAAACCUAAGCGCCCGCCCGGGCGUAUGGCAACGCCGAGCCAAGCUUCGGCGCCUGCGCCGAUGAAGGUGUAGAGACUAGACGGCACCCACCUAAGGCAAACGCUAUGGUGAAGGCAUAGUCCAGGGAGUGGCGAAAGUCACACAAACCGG

- Variants of: B1
- Experiment: reverse-splicing fitness (ratio to wild type); higher = more active; in vitro selection; Mg2+ level not given
Classification field: Condition met = reverse-splicing fitness at or over 0.009; Condition not met = reverse-splicing fitness under 0.009.

Variant label | Label class
C82G A120C A145C C169U U176C | Condition met
C82U A111G A120C A145C C150G U176G | Condition not met
C82G A120C C169U U176C | Condition met
C82U A111G A145C C150G C169G U176A | Condition not met
C82G A120U A145U C150G U176G | Condition not met
C82G A111C A120G A145U C150A U176G | Condition not met
C82A A111G A120G A145U C150A | Condition met
